Exercise: state measured IC50 (nM), calcium flux assay in CCRF-CEM cells, 5 ng/ml cyno CCL17 for each of the binders provided.
Molecular target: T1, cyno CCL17 (Macaca fascicularis (cyno), UniProt Q8HYP9 24-94 (rhesus entry))
T1 sequence: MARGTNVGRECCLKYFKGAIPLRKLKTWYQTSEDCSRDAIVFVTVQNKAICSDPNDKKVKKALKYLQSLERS
Assay: cell-based or functional assay
Numbers only, in nM.

{"binder": "C17B234 (antibody, V domains shown, Full IgG1, kappa) VH: EVQLVQSGAEVKKPGESLKISCKGSGYSFTSYWIGWVRQMPGKGLEWMGIIDPSDSDTRYSPSFQGQVTISADKSISTAYLQWSSLKASDTAMYYCARVGPADVWDSFDYWGQGTLVTVSS VL: DIVMTQSPDSLAVSLGERATINCKSSQSVLLSFDNINKLAWYQQKPGQPPKLLIYNASTRESGVPDRFSGSGSGTDFTLTISSLQAEDVAVYYCQQFYSVPSTFGQGTKVEIK", "unit_info": "nM", "measured": 0.369}
{"binder": "C17B240 (antibody, V domains shown, Full IgG1, kappa) VH: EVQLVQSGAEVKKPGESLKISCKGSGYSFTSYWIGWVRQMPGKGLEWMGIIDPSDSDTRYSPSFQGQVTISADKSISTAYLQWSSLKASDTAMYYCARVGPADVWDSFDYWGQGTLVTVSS VL: DIVMTQSPDSLAVSLGERATINCKSSQSVLYSHVNYNALAWYQQKPGQPPKLLIYNASTRESGVPDRFSGSGSGTDFTLTISSLQAEDVAVYYCQQYYTLPATFGQGTKVEIK", "unit_info": "nM", "measured": 0.308}

// next entry
[Q] Bench note: what IC50 (nM), calcium flux assay in CCRF-CEM cells, 5 ng/ml cyno CCL17 did C17B239 (antibody, V domains shown, Full IgG1, kappa) VH: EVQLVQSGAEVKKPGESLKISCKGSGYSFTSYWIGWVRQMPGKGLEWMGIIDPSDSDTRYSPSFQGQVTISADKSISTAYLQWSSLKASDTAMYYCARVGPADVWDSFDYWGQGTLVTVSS VL: DIVMTQSPDSLAVSLGERATINCKSSQSVLSSFTNTNTLAWYQQKPGQPPKLLIYHASTRESGVPDRFSGSGSGTDFTLTISSLQAEDVAVYYCQQYLIYPSTFGQGTKVEIK show?
[A] 0.43
